meta.source: the supplement of paper PMC11061612

# System: EoL-1-cell (Acute Myeloid Leukemia);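 note: after 72 h of two-drug dosing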
# protocol.summary: Bliss excess, mean over the matrix (fraction); higher = more synergy
Classification field: enter satisfied for Bliss excess values not below 0.01, not satisfied for values below it.

Asked: For this molecule, is measured Bliss excess 0.01 or higher? COc1cccc(OCCCN)c1-c1cc(Nc2cnc(C#N)cn2)n[nH]1 [Prexasertib] + O=C(c1cc(Cc2n[nH]c(=O)c3ccccc23)ccc1F)N1CCN(C(=O)C2CC2)CC1 [Olaparib] (first compound max 1 µM, 7x7, partner max 10 µM)
Given back: not satisfied

Asked: Quick check, Bliss excess >= 0.01? COc1nnc2ccc(N3CCC(c4ccc(OCCN5CCN(C)C(=O)[C@H]5C)cc4)CC3)nn12 [AZD5153] + Cc1c2c(nn1C)CSCc1cc(n(C)n1)CSc1cc(c3ccccc3c1)OCCCc1c(C(=O)O)n(C)c3c-2c(Cl)ccc13 [AZD5991] (first compound max 1 µM, 7x7, partner max 1 µM)
Given back: not satisfied

Asked: Exam item: decide whether the reported Bliss excess for CN(CCO)CC[C@H](CSc1ccccc1)Nc1ccc(S(=O)(=O)NC(=O)c2ccc(N3CCC([C@@H](O)c4ccccc4-c4ccc(Cl)cc4)CC3)cc2)cc1S(=O)(=O)C(F)(F)F [AZD4320] + C[C@@H]1COCCN1C2=NC(=NC(=C2)C3(CC3)[S@](=N)(=O)C)C4=C5C=CNC5=NC=C4 [AZD6738] (first compound max 1 µM, 7x7, partner max 10 µM) is at least 0.01.
Given back: satisfied

Asked: Reported Bliss excess reaches at least 0.01 for O=C(c1cc(Cc2n[nH]c(=O)c3ccccc23)ccc1F)N1CCN(C(=O)C2CC2)CC1 [Olaparib] + CN(CC[C@H](CSC1=CC=CC=C1)NC2=C(C=C(C=C2)S(=O)(=O)NC(=O)C3=CC=C(C=C3)N4CCC(CC4)[C@H](C5=CC=CC=C5C6=CC=C(C=C6)Cl)O)S(=O)(=O)C(F)(F)F)CCO [AZD4320] (first compound max 10 µM, 7x7, partner max 1 µM) ?
Given back: satisfied

Asked: # bool: Bliss excess of CC1(C)CCC(CN2CCN(c3ccc(C(=O)NS(=O)(=O)c4ccc(NCC5CCOCC5)c([N+](=O)[O-])c4)c(Oc4cnc5[nH]ccc5c4)c3)CC2)=C(c2ccc(Cl)cc2)C1 [Venetoclax] + CCN(CCO)CCCOc1ccc2c(Nc3cc(CC(=O)Nc4cccc(F)c4)[nH]n3)ncnc2c1 [AZD2811] (first compound max 1 µM, 7x7, partner max 1 µM) >= 0.01
Given back: satisfied

Asked: Entry COc1nnc2ccc(N3CCC(c4ccc(OCCN5CCN(C)C(=O)[C@H]5C)cc4)CC3)nn12 [AZD5153] + C=CCn1c(=O)c2cnc(Nc3ccc(N4CCN(C)CC4)cc3)nc2n1-c1cccc(C(C)(C)O)n1 [AZD1775] (first compound max 1 µM, partner max 1 µM) : is its Bliss excess no less than 0.01?
Given back: not satisfied

Asked: Dear colleague, could you confirm whether Cc1c2c(nn1C)CSCc1cc(n(C)n1)CSc1cc(c3ccccc3c1)OCCCc1c(C(=O)O)n(C)c3c-2c(Cl)ccc13 [AZD5991] + CN(C)CCCOc1ccc(-c2ccc3ncc4c(c3c2)n(C2CCOCC2)c(=O)n4C)cn1 [AZD0156] (first compound max 1 µM, 7x7, partner max 1 µM) has Bliss excess at or above 0.01?
Given back: not satisfied

Asked: Does the reported Bliss excess for O=C(c1cc(Cc2n[nH]c(=O)c3ccccc23)ccc1F)N1CCN(C(=O)C2CC2)CC1 [Olaparib] + CC1(C)CCC(CN2CCN(c3ccc(C(=O)NS(=O)(=O)c4ccc(NCC5CCOCC5)c([N+](=O)[O-])c4)c(Oc4cnc5[nH]ccc5c4)c3)CC2)=C(c2ccc(Cl)cc2)C1 [Venetoclax] (first compound max 10 µM, 7x7, partner max 1 µM) fall at or above the 0.01 mark?
Given back: satisfied

Asked: Quick check, Bliss excess >= 0.01? NC1(C(=O)N[C@@H](CCO)c2ccc(Cl)cc2)CCN(c2ncnc3[nH]ccc23)CC1 [Capivasertib] + C[C@@H]1COCCN1C2=NC(=NC(=C2)C3(CC3)[S@](=N)(=O)C)C4=C5C=CNC5=NC=C4 [AZD6738] (first compound max 10 µM, 7x7, partner max 10 µM)
Given back: satisfied

Asked: Could you verify whether the entry Cc1cc2ncnn2cc1Nc1ncc2c(n1)n(C1CCOCC1)c(=O)n2C [AZD7648] + CCN(CCO)CCCOc1ccc2c(Nc3cc(CC(=O)Nc4cccc(F)c4)[nH]n3)ncnc2c1 [AZD2811] (first compound max 10 µM, 7x7, partner max 1 µM) shows Bliss excess of no less than 0.01?
Given back: not satisfied

Asked: Has Cc1cc2ncnn2cc1Nc1ncc2c(n1)n(C1CCOCC1)c(=O)n2C [AZD7648] + C=CCn1c(=O)c2cnc(Nc3ccc(N4CCN(C)CC4)cc3)nc2n1-c1cccc(C(C)(C)O)n1 [AZD1775] (first compound max 10 µM, partner max 1 µM) a recorded Bliss excess greater than or equal to 0.01?
Given back: satisfied

Asked: Can CN(CCO)CC[C@H](CSc1ccccc1)Nc1ccc(S(=O)(=O)NC(=O)c2ccc(N3CCC([C@@H](O)c4ccccc4-c4ccc(Cl)cc4)CC3)cc2)cc1S(=O)(=O)C(F)(F)F [AZD4320] + C=CCn1c(=O)c2cnc(Nc3ccc(N4CCN(C)CC4)cc3)nc2n1-c1cccc(C(C)(C)O)n1 [AZD1775] (first compound max 1 µM, partner max 1 µM) be said to have Bliss excess at or above 0.01?
Given back: not satisfied
